What viability was measured for each of the following?
# ASSAY COMMENT: BET inhibitor-based combinations targeting novel dependencies in MECOM-rearranged (r) AML: SET-2 cell line (AID 2202231);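 further: plate controls were DMSO treated cells for no effect and wells without cells for full effect; nearly all actives have a fitted effect of over 35% in size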
# SETUP CONDITIONS: SET-2 AML cells viability, CellTiter-Glo luminescence, 48 h; hits give low values, concentration not given here
Results filed as inconclusive are left out. Activity calls are given as the source filed them. The call rests on the fitted dose curve; in most records, active means well fitted inhibition curve with a large enough effect; inconclusive means small, poorly fitted or top-dose-only effect; inactive means no such curve, though single readings can be large or run the other way.

Qu. Please report the recorded viability for Cc1nc2cccc(N)c2c(=O)n1C1CCC(=O)NC1=O (stereo unspecified) .
Ans. 109% (inactive)

Qu. Same again, this time with CC(=O)[C@]1(N)Cc2c(O)c3c(c(O)c2[C@@H](O[C@H]2C[C@H](O)[C@H](O)CO2)C1)C(=O)c1ccccc1C3=O
Ans. 106% (inactive)

Qu. Proceed to O=C(CCc1ccc(O)cc1)c1c(O)cc(O)cc1O[C@@H]1O[C@H](CO)[C@@H](O)[C@H](O)[C@H]1O
Ans. 76.1% (inactive)

Qu. What do you get for COC1=C(OC)C(=O)C(C/C=C(\C)CC/C=C(\C)CC/C=C(\C)CC/C=C(/C)CC/C=C(\C)CC/C=C(\C)CC/C=C(\C)CC/C=C(\C)CC/C=C(\C)CCC=C(C)C)=C(C)C1=O ?
Ans. 117% (inactive)

Qu. Also need CC(=O)CC(c1ccccc1)c1c(O)c2ccccc2oc1=O (stereo unspecified) , thanks.
Ans. 107% (inactive)

Qu. Entry to check: CC[C@H](Nc1ncnc2nc[nH]c12)c1oc2ccccc2c(=O)c1-c1cccc(F)c1
Ans. 93.4% (inactive)

Qu. Now try Cc1onc(-c2ccc(F)cc2)c1COc1ccc(C(=O)N2CCS(=O)(=O)CC2)cn1 .
Ans. 112% (inactive)

Qu. Now the compound Cc1ccc2cc(-c3c(C)ccc(C(=O)c4c(-c5ccccc5)n(C)n(-c5ccccc5)c4=O)c3N)ccc2n1
Ans. 92.3% (inactive)

Qu. # iterate: Nc1ncnc2nc(-c3ccc(N4CCOCC4)nc3)cc(-c3cccc(Br)c3)c12
Ans. 91.6% (inactive)

Qu. Another compound to look at: Nc1nc(OC(c2ccc(-c3cccc(F)c3)cc2)C(F)(F)F)cc(-c2ccc(C[C@H](N)C(=O)O)cc2)n1 (stereo partly specified)
Ans. 120% (inactive)

Qu. Moving on to the next compound: CC[C@H]1OC(=O)[C@H](C)[C@@H](O[C@H]2C[C@@](C)(OC)[C@@H](O)[C@H](C)O2)[C@H](C)[C@@H](O[C@@H]2O[C@H](C)C[C@H](N(C)C)[C@H]2O)[C@](C)(O)C[C@@H](C)C(=O)[C@H](C)[C@@H](O)[C@]1(C)O
Ans. 113% (inactive)

Qu. // query: Cc1c(F)ccc(C(=O)Nc2cc([N+](=O)[O-])ccc2N2CCN(C)CC2)c1Cl
Ans. 110% (inactive)

Qu. // same read-out, input: COc1ccnc(CS(=O)c2nc3ccc(OC(F)F)cc3[nH]2)c1OC (stereo unspecified)
Ans. 114% (inactive)

Qu. Next record, please: O=C(Nc1cnn2ccc(N3CCC[C@@H]3c3cc(F)ccc3F)nc12)N1CC[C@H](O)C1
Ans. 98.9% (inactive)

Qu. Same question for O=C(NOCCO)c1cc(CN2OCCCC2=O)c(F)c(F)c1Nc1ccc(I)cc1F please.
Ans. 70.8% (inactive)

Qu. Repeat for the following compound: CCOc1ccc(Cc2cc([C@@H]3O[C@H](CO)[C@@H](O)[C@H](O)[C@H]3O)ccc2Cl)cc1
Ans. 95% (inactive)

====

# STUDY SYSTEM: Aldehyde dehydrogenase, mitochondrial (Homo sapiens) (UniProt P05091)
# ASSAY COMMENT: qHTS for Inhibitors of the Aldehyde Dehydrogenase Family (ALDH2) Primary screen (AID 2061308); further: nearly all actives have a fitted effect of over 55% in size
# SETUP CONDITIONS: ALDH2 enzyme inhibition qHTS, 1536-well; series mostly up to 56 µM
Inconclusive results are not listed. Activity calls are given as the source filed them. Calls follow the shape of the dose curve; as a rule, active = well fitted inhibition curve with a large enough effect; inconclusive = small, poorly fitted or top-dose-only effect; inactive = flat fitted curve, though single readings scatter.
Lab note: assign the record to one of true = active, false = inactive

Qu. Outcome logged for Cc1cc2c(s1)c1cnn(Cc3cccc(C)c3F)c(=O)c1n2C in this assay:
Ans. false

Qu. Further, for O=[S+]([O-])(/C=C/c1nc(Nc2cc(F)cc(F)c2)c2ncn(CC(F)F)c2n1)c1ccccc1 ?
Ans. false

Qu. Here is the next compound: NC(=O)C1CCN(c2nc(-c3ccc(C(F)(F)F)cc3)cs2)CC1
Ans. false

Qu. Note, next up: CNc1oc(-c2cccc(Cl)c2)nc1C#N
Ans. false

Qu. Check O=S(=O)(Nc1cccc2cccnc12)c1ccccc1 too.
Ans. false

Qu. Param item: Cc1ccc(S(=O)(=O)Nc2cnccc2C(=O)Nc2cccc3ccccc23)cc1
Ans. false

Qu. Param item: CCCn1c(-c2ccc(F)cc2)nc2c(NCCCN(C)C)nc(C)nc21
Ans. false

Qu. Input CCN(CC)CCCCn1c(-c2ccccc2)nc2c(N3CCOCC3)nc(C)nc21
Ans. false

Qu. Next record, please: CCOc1cccc(-c2cc(-c3n[nH]c(=O)n3CC)c3ccccc3n2)c1
Ans. false

Qu. Now consider Cc1cc(N[S+](=O)([O-])c2ccc(NC(=O)Cc3ccc4c(c3)CCCC4)cc2)no1 .
Ans. false

Qu. Same question, Cc1ccc(N[S+](=O)([O-])c2cc3c(cc2NC2CC2)NC(=O)CC3)cc1C this time
Ans. false

Qu. // repeat for Cc1ccc(-c2ccc(=O)n(CC(=O)NCCc3ccc(O)cc3)n2)cc1 and report
Ans. false

Qu. Can you check Cc1ccnc(NC(=S)N2CCc3cccc(C(F)(F)F)c3C2)c1 next?
Ans. false

Qu. Another compound to check: O=S(=O)(Nc1cccc2cccnc12)c1ccc2ccccc2c1
Ans. false

Qu. Same lookup for O=C(O)c1ccnc2c(O)cccc12 , please.
Ans. false

Qu. Further, for CC1(C)CC[C@]2(C(=O)O)CC[C@]3(C)C(=CCC4[C@@]5(C)C[C@@H](O)[C@H](O)C(C)(C)C5CC[C@]43C)C2C1 (stereo partly drawn) ?
Ans. false

Qu. Please give the result for COc1ccccc1CNC(=O)Nc1nnc(-c2ccncc2)s1 too.
Ans. false

Qu. Again, but for Cc1ccc2nc3sc(C(=O)Nc4ccncc4)cc3cc2c1
Ans. false

Qu. # repeat for O=C(c1ccccc1)c1ccc2nc(NC(=O)c3csc(C4CCN(c5ncnc6ccsc56)CC4)n3)[nH]c2c1
Ans. false

Qu. Similarly, COc1ccc(-n2ncc3c2CCCC3NC(=O)c2ccc3ncccc3c2)cc1 (stereo not drawn) ?
Ans. false

Qu. Follow-up entry: O=C(Nc1ccc(Cl)cc1)Nc1nnc(-c2ccncc2)s1
Ans. false

Qu. Lookup Cc1cc(C)nc(NC(=S)N2CCN(c3ncccn3)CC2)c1
Ans. false

Qu. Repeat for the following compound: Nc1ccccc1OC1=NS(=O)(=O)c2ccccc21
Ans. true

Qu. And the next one, COc1ccc(NC(=O)c2[nH]c(C)c(C(C)=O)c2C)cc1S(=O)(=O)Nc1ccc(C#N)cc1 ?
Ans. false

Qu. Further, for O=C(NCCCCN1CCN(c2cccc(Cl)c2Cl)CC1)c1cc2ccccc2s1 ?
Ans. false

Qu. Here is the next compound: COc1ccc(OC)c(C2=Nn3c(nnc3-c3ccccc3OC)SC2)c1
Ans. false

Qu. Now this one: Cc1cc2c(s1)c1cnn(Cc3cccc4cccnc34)c(=O)c1n2C
Ans. false

Qu. Also, O=c1c2[nH]c3cc(Br)sc3c2cnn1Cc1ccccc1F please.
Ans. false

Qu. Next record, please: COc1cccc(C(=O)NC2CCN(C#N)CC2)c1
Ans. false

Qu. Next compound: COc1cc(-c2cc(-c3ccc(N4CCNCC4)cc3)cnc2C)cc(OC)c1OC
Ans. false

Qu. Same for O=C(Cc1nnc(-c2nc3ccccc3[nH]2)o1)Nc1cc(C(F)(F)F)ccc1Cl
Ans. false

Qu. Please do the same for Cc1ccc(-c2cc(C(=O)NC3CCCCC3)c3ccccc3n2)cc1C as well.
Ans. false

Qu. Query CC(=O)Nc1ccccc1NC(=O)c1cnn2c(C)cc(C)nc12 next
Ans. false

Qu. Try this compound too: N#Cc1ccccc1CNc1nc2ncc(Br)cc2[nH]1
Ans. false

Qu. Queued: c1nc(NCC2CCCCC2)c2cc(-c3ccc4c(c3)OCO4)ccc2n1
Ans. false

Qu. Here is the next compound: Cn1cc(-c2cnc3ccc4ccc(CS(=O)(=O)NCc5ccccn5)cc4c(=O)c3c2)cn1
Ans. false

Qu. One more compound: COc1ccc(CNc2ccc(S(=O)(=O)Nc3nccs3)cc2)c(O)c1
Ans. false

Qu. And then O=C(NCCc1nc2ccccc2n1CCOc1ccccc1F)C1CCCCC1 , what is it?
Ans. false

Qu. // next record CCOC(=O)c1ccoc1-c1ccc2ncnc(NCCc3cnc[nH]3)c2c1
Ans. false

Qu. O=C(CSc1nnc(-c2cccc(S(=O)(=O)N3CCCC3)c2)n1-c1ccccc1)Nc1ccc(Cl)cc1 , same question.
Ans. false

Qu. Now try CC/C=C/CC1=C(CCCCC(CCC(=O)O)OC(C)=O)CCC1=O (stereo not drawn) .
Ans. false

Qu. And what about the compound CN1C2CCC1CC(OC(=O)[C@H](CO)c1ccccc1)C2 (stereo partly drawn) ?
Ans. false

Qu. How about this compound: N#Cc1nc(Nc2cccc(C(F)(F)F)c2)nc(NC2CCCC2)n1
Ans. false
